Compiled notes: published pKi values involving Prothrombin (Homo sapiens, UniProt P00734).
Lab note: report pKi as minus log10 of the concentration in molar units, number only.

Answered cases to consult:
COMPOUND	pKi
COc1cccc(S(=O)(=O)Nc2cccn(CC(=O)NCc3ccc(C(=N)N)cc3Cl)c2=O)c1	7.68
CC(C)OC(=O)CC(CCc1ccc(C(=N)N)cc1)c1cccc(C(=N)N)c1 (centres undefined)	5.81
C/C(=N\NC(=N)N)c1cc(NC(=O)CCCCCNC(=N)N)cc(/C(C)=N/NC(=N)N)c1	3.00
CC[C@H](C)[C@H](NC(=O)[C@H]1CCCN1C(=O)[C@H](CCC(=O)O)NC(=O)[C@@H](Cc1ccc(O)cc1)NC(=O)CC(N)C(=O)CCCCCCCNC(=O)c1ccccc1N)C(=O)N1CCC[C@@H]1C(=O)N[C@@H](CCC(=O)O)C(=O)N[C@H](CCC(=O)O)C(=O)N[C@@H](C)C(=O)N[C@H](CC1CCCCC1)C(=O)N[C@@H](CCC(=O)O)C(=O)O (some centres undefined)	7.00
CCCS(=O)(=O)N[C@@H](C(=O)N[C@@H](CCSC)C(=O)NCc1ccc(C(=N)N)cc1)[C@@H](C)CC	6.66
N=C(N)c1cccc(C[C@H](NS(=O)(=O)c2cccc(NC(=O)CCN)c2)C(=O)N2CCC(CCCN=C(N)N)CC2)c1	5.40

Now turn to the next compound.
Inquiry: Find pKi for `COc1ccc(S(=O)(=O)NN=C(N)N)cc1N` on Prothrombin (Homo sapiens, UniProt P00734) and write it down.
Reply text: 6.66

====

pKi: −log10 of the molar value.
Compiled notes: published pKi values involving Prothrombin (Homo sapiens, UniProt P00734).
// class assignment uses pKi with these ranges: low = under 5, medium = from 5 up to 7, high = 7 and over

Some solved entries appear below for comparison.
> print(dat)
                                   molecule  discrete.label
1  N=C(N)c1ccc(CNC(=O)[C@@H](NC(=O)[C@@H](CC2CCCCC2)NCC(=O)O)C2CCNCC2)cc1             low
2              N=C(N)NNS(=O)(=O)c1ccc(F)cc1          medium
3  COC(=O)Nc1ccc(-c2nc([C@H](Cc3ccccc3)NC(=O)/C=C/c3cc(Cl)ccc3-n3cnnn3)[nH]c2Cl)cc1             low
4  COC(=O)C(Cc1ccccc1)C(=O)Nc1ccc2c(c1)OC(C)(COc1ccc(C(=N)N)cc1)CN2C (configuration not stated)          medium
5  COC(=O)[C@H](Cc1cccc(C(=N)N)c1)[C@@H](C)NC(=O)c1ccc(-c2cccc(CN(C)C)c2)cc1          medium

Inquiry: Into which bin does this molecule go? CS(=O)(=O)NCC1(C(=O)Nc2ccc(-c3ccccc3S(N)(=O)=O)cn2)CC(c2ccc3onc(N)c3c2)=NO1 (configuration not stated)
Reply text: medium

Inquiry: Into which bin does this molecule go? `COc1ccc(C(=O)OC[C@H](CCCN=C(N)N)NC(=O)[C@@H]2CCCN2C(=O)[C@@H](Cc2ccccc2)NC(=O)OC(C)(C)C)cc1`
Reply text: low

Inquiry: Into which bin does this molecule go? `COC(=O)/C=C/c1cn(CC(=O)N2CCC(Cc3ccccc3)CC2)c2ccc(C(=N)N)cc12`
Reply text: high

Inquiry: Into which bin does this molecule go? `N=C(N)c1cccc(Oc2cc(C(=O)O)cc(Oc3cccc(C(=N)N)c3)n2)c1`
Reply text: low

Inquiry: Into which bin does this molecule go? `COC(=O)CCN(CC1CC1)C(=O)c1cc(Cl)cc(OCCCONC(=N)N)c1`
Reply text: high

Inquiry: Into which bin does this molecule go? `COc1ccc(-n2nc(C(F)(F)F)cc2C(=O)Cc2ccc(-n3ccccc3=O)cc2F)cc1`
Reply text: low

Inquiry: Into which bin does this molecule go? CCOc1cc(OC(C)C)c(F)c(C(Nc2ccc(C(=N)N)cc2)c2nc(-c3ccccc3C)c[nH]2)c1 (configuration not stated)
Reply text: medium
